- Tested on: perfused rabbit ear
- procedure.summary: Blood-flow change in perfused isolated rabbit ear, vaso-dilator activity (Ringer-Norfenefrin solution)
- run.conditions: 10^-6 g/ml
Where a name gives a salt, the structure may show the parent alone.
test.readout: Relative change in blood flow, vaso-dilator activity

Example entries begin here.
{"compound": "CCCCCC(C)NCc1ccc(Cl)cc1 (single isomer, unassigned)", "recorded.result": "+3"}
{"compound": "CCCCCCC(C)NCc1c(C)cc(C)cc1C (stereo not drawn)", "recorded.result": "+29"}
{"compound": "Cc1cc(C)c(CNC(C)CCCC(C)(C)O)c(C)c1 (stereo not drawn)", "recorded.result": "+12"}
{"compound": "CCCCCC(C)NCc1c(C)cc(C)cc1C (single isomer, unassigned) [compound 4]", "recorded.result": "+40"}
{"compound": "CCCCCC(C)NCc1c(C)cc(C)cc1C (stereo not drawn) [Serial No. 2, hydrochloride]", "recorded.result": "+31"}

Lab note: next compound to report on.
Lab note: COCCCNCc1c(C)cc(C)cc1C gave Relative change in blood flow, vaso-dilator activity of +12

---

List of Relative change in blood flow, vaso-dilator activity values.
- Tested on: perfused rabbit ear
- procedure.summary: Blood-flow change in perfused isolated rabbit ear, vaso-dilator activity (Ringer-Norfenefrin solution)
- run.conditions: 3 × 10^-5 g/ml

{"compound": "COCCCNCc1c(C)cc(C)cc1C", "recorded.result": "+30"}

Lab note: CCC(C)CC(C)NCc1c(C)cc(C)cc1C (centres unmarked) gave Relative change in blood flow, vaso-dilator activity of +47

Lab note: Cc1cc(C)c(CNC(C)CCCC(C)C)c(C)c1 (centres unmarked) gave Relative change in blood flow, vaso-dilator activity of +19

---

- System: isolated guinea-pig heart
- procedure.summary: Relative coronary blood-flow change in isolated guinea-pig heart (Langendorff)
- run.conditions: 100 μg (first figure where two are given)
Structures can show the parent of a compound that is named as a salt.
List of Relative change in coronary blood flow values.

Example entries begin here.
{"molecule": "CCC(C)CC(C)NCc1c(C)cc(C)cc1C (stereo not drawn) [compound 28]", "Relative change in coronary blood flow": "+226"}
{"molecule": "CCCCCC(C)NCc1c(C)cc(C)cc1C (stereo not drawn) [Serial No. 2, hydrochloride]", "Relative change in coronary blood flow": "+120"}

Lab note: CCCCCC(C)NCc1c(C)cc(C)cc1C (single isomer, unassigned) [compound 3] gave Relative change in coronary blood flow of +30

---

- procedure.summary: Toxicity in the mouse (Litchfield and Wilcoxon)
- Assay type: in vivo
- run.conditions: mouse, in vivo, ip
List of LD50 values.

{"compound": "CCCCCCCCNCc1c(C)cc(C)cc1C", "LD50": "25 to 50 mg/kg"}
{"compound": "Cc1cc(C)c(CNCCCOC(C)C)c(C)c1", "LD50": "100 to 250 mg/kg"}
{"compound": "CCOCCCNCc1c(C)cc(C)cc1C", "LD50": "50 to 100 mg/kg"}
{"compound": "CCCCCNCc1c(C)cc(C)cc1C", "LD50": "50 to 100 mg/kg"}
{"compound": "CCCCCC(C)NCc1ccc(F)cc1 (centres unmarked)", "LD50": "100 to 250 mg/kg"}
{"compound": "CCCCCC(C)NCc1ccc([N+](=O)[O-])cc1 (centres unmarked)", "LD50": "100 to 250 mg/kg"}

Lab note: CCCCCC(C)NCc1c(C)c(C)cc(C)c1C (centres unmarked) gave LD50 of 50 to 100 mg/kg

Lab note: CCC(C)CC(C)NCc1c(C)cc(C)cc1C (centres unmarked) gave LD50 of 50 to 100 mg/kg

Lab note: Cc1cc(C)c(CNCCCC(C)C)c(C)c1 gave LD50 of 100 to 250 mg/kg

Lab note: CCCCCC(C)N(Cc1c(C)cc(C)cc1C)CP(C)(C)=O (centres unmarked) gave LD50 of 100 to 250 mg/kg

Lab note: CCC(C)C(C)NCc1c(C)cc(C)cc1C (centres unmarked) gave LD50 of 100 to 250 mg/kg

Lab note: CCCCCC(C)NCc1c(C)cc(C)cc1C (single isomer, unassigned) [compound 3] gave LD50 of 50 to 100 mg/kg

---

List of Relative change in blood flow, vaso-dilator activity values.
- Tested on: perfused rabbit ear
- procedure.summary: Blood-flow change in perfused isolated rabbit ear, vaso-dilator activity (Ringer-Norfenefrin solution)
- run.conditions: 10^-6 g/ml

{"compound": "CCCCC(C)NCc1c(C)cc(C)cc1C (stereo not drawn)", "recorded.result": "+1"}
{"compound": "CCCCCC(C)NCc1c(C)cc(C)cc1C (single isomer, unassigned) [compound 3]", "recorded.result": "+43"}

Lab note: next compound to report on.
Lab note: CCC(C)C(C)NCc1c(C)cc(C)cc1C (stereo not drawn) gave Relative change in blood flow, vaso-dilator activity of +4

---

List of Relative change in blood flow, vaso-dilator activity values.
- Tested on: perfused rabbit ear
- procedure.summary: Blood-flow change in perfused isolated rabbit ear, vaso-dilator activity (Ringer-Norfenefrin solution)
- run.conditions: 3 × 10^-5 g/ml
- Description: (3) Blood-flow change in an isolated rabbit ear The tests were carried out according to Krakow-Pissemski (Pflugers Archiv 151 (1913), page 583 and 156 (1914), page 426). In Table 5a the estimated values of the vaso-constrictor activity in Ringer solutions of varying concentrations are given and in Table 5b values for vasodilatory activity in Ringer-Norfenefrin solutions of varying concentrations are given. As a comparison, the values obtained with the known preparation aescin sodium are given.

Example entries begin here.
{"compound": "CCCCCC(C)NCc1ccc(Cl)cc1 (single isomer, unassigned)", "recorded.result": "+66"}
{"compound": "CCCCCC(C)NCc1c(C)cc(C)cc1C (single isomer, unassigned) [compound 3]", "recorded.result": "+38"}
{"compound": "CCC(C)C(C)NCc1c(C)cc(C)cc1C (centres unmarked)", "recorded.result": "+12"}
{"compound": "CCCCCC(C)N(Cc1c(C)cc(C)cc1C)CP(C)(C)=O (centres unmarked)", "recorded.result": "+67"}
{"compound": "CCCCCCOCCCNCc1c(C)cc(C)cc1C", "recorded.result": 0}

Lab note: CCCCCC(C)NCc1ccccc1Br (centres unmarked) gave Relative change in blood flow, vaso-dilator activity of +12

Lab note: CCCCCC(C)NCc1ccc(F)cc1 (centres unmarked) gave Relative change in blood flow, vaso-dilator activity of +34

Lab note: CCCCCC(C)NCc1c(C)cc(C)cc1C (single isomer, unassigned) [compound 4] gave Relative change in blood flow, vaso-dilator activity of +31

---

- procedure.summary: Toxicity in the mouse (Litchfield and Wilcoxon)
- Assay type: in vivo
- run.conditions: mouse, in vivo, ip
List of LD50 values.

Example entries begin here.
{"compound": "CCCC(C)NCc1c(C)cc(C)cc1C (centres unmarked)", "LD50": "50 to 100 mg/kg"}
{"compound": "CCCCCCNCc1c(C)cc(C)cc1C", "LD50": "50 to 100 mg/kg"}
{"compound": "CCCCC(C)NCc1c(C)cc(C)cc1C (centres unmarked)", "LD50": "50 to 100 mg/kg"}
{"compound": "Cc1cc(C)c(CNC(C)CCCC(C)C)c(C)c1 (centres unmarked)", "LD50": "50 to 100 mg/kg"}

Lab note: next compound to report on.
Lab note: CCCCCC(C)NCc1ccc(Cl)cc1 (single isomer, unassigned) gave LD50 of 25 to 100 mg/kg
